Biological target: human A2A adenosine receptor (hA2AAR) (Homo sapiens, UniProt P29274)
Sequence (P29274 whole entry): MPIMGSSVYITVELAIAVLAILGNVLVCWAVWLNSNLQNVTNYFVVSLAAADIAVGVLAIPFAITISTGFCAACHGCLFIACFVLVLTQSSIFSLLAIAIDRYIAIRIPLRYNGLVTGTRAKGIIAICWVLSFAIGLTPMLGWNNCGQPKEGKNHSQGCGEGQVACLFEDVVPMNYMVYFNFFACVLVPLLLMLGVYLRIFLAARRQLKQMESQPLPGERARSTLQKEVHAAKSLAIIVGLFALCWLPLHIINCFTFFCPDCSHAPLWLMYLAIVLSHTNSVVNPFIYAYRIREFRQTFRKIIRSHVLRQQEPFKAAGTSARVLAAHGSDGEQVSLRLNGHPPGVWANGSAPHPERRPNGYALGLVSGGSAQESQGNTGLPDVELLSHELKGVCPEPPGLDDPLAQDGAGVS
Test: radioligand binding assay at human A2AAR
Settings: free energy of binding divided by the number of heavy atoms
PROPERTY LABEL: ligand efficiency (LE)

COc1ccccc1C(=O)Nc1nc(-c2ccccc2)n[nH]1	0.42
O=C(Nc1nc(-c2ccccc2)n[nH]1)c1ccccc1	0.44
CCCC(=O)Nc1nc(-c2ccccc2)n[nH]1	0.48
Cc1cccc(O[C@H](C)C(=O)Nc2nc(-c3ccccc3)n[nH]2)c1	0.34
